Cited source: patent US4994468A

Tested on: passive cutaneous anaphylaxis (PCA)
Assay: Antiallergic effects: 48 hour-homologous passive cutaneous anaphylaxis (PCA) test in rats
Assay type: in vivo, rat (Wistar male)
Settings: Rattus norvegicus; minimum effective dosage: suppression rate 50% or higher in at least one of three rats; oral, 1 hour before PCA challenge; read-out: Anti-allergic effect (MED)
property_measured: minimal effective dose

Incoming: Tell me the measured minimal effective dose of CCCCn1c(=O)c2ncn(CC)c2c2ccccc21.Cl [Compound 16W] , please.
Outgoing: > 100 mg/kg

Incoming: Please give the result for CCCCn1c(=O)c2ncn(C(C)C)c2c2ccccc21.Cl [Compound 18W] too.
Outgoing: > 100 mg/kg

Incoming: Please give the result for CCCCn1c(=O)c2ncn(C)c2c2ccc(Cl)cc21.Cl [Compound 24W] too.
Outgoing: > 100 mg/kg

Incoming: Please give the result for CCCn1c(=O)[nH]c(=O)c2[nH]cnc21 [Enprofylline, reference compound] too.
Outgoing: ≤ 100 mg/kg

Incoming: Please give the result for CC(C)C(=O)c1c(C(C)C)nn2ccccc12 [KC 404, reference compound] too.
Outgoing: > 100 mg/kg

Incoming: Please give the result for `CCCn1c(=O)c2ncn(C)c2c2ccccc21` too.
Outgoing: < 10 mg/kg

Incoming: Please give the result for `CCCCn1c(=O)c2nc(S)n(C)c2c2ccccc21` too.
Outgoing: > 100 mg/kg

Incoming: Please give the result for `CCCCn1c(=O)c2nc[nH]c2c2ccccc21` too.
Outgoing: > 100 mg/kg

Incoming: Please give the result for `CCCCn1c(=O)c2nnn(C)c2c2ccccc21` too.
Outgoing: > 100 mg/kg

Incoming: Please give the result for `CCCCn1c(=O)c2ncn(C)c2c2ccccc21` too.
Outgoing: < 10 mg/kg

====

System: experimental asthma in passively sensitized guinea pigs
Test: Effects on experimental asthma
Format: in vivo, guinea pig (Hartley male)
Conditions: 50 mg/kg orally, one hour before aerosol antigen 1.5% EWA; mean + SEM of 5 or 10 animals; control 254 ± 18
Listed next: entries and their corresponding Experimental asthma (collapse time).
// units = s; emit number, no label

Example entries and their recorded answers appear below.
molecule	unit_descriptor	Experimental asthma (collapse time)
CCCCn1cnc2c(=O)n(CCCC)c3ccccc3c21.Cl [Compound 19W]	s	503
CCCn1c(=O)c2ncn(C)c2c2ccccc21	s	600
Cn1cnc2c(=O)n(CC(=O)O)c3ccccc3c21	s	532
CCCCn1c(=O)c2ncn(CC)c2c2ccccc21.Cl [Compound 16W]	s	422
CCCCn1c(=O)c2ncn(C(C)C)c2c2ccccc21.Cl [Compound 18W]	s	425

Now for a further molecule.
Incoming: Notebook entry, experimental asthma in passively sensitized guinea pigs assay: Experimental asthma (collapse time) of `CCCCn1c(=O)c2nc(S)n(C)c2c2ccccc21` = ?
Outgoing: 284

====

Listed next: entries and their corresponding minimal effective dose.
Tested on: passive cutaneous anaphylaxis (PCA)
Experiment: Antiallergic effects: 48 hour-homologous passive cutaneous anaphylaxis (PCA) test in rats
Assay type: in vivo, rat (Wistar male)
Conditions: Rattus norvegicus; minimum effective dosage: suppression rate 50% or higher in at least one of three rats; oral, 1 hour before PCA challenge; read-out: Anti-allergic effect (MED)

Example entries and their recorded answers appear below.
molecule	minimal effective dose
Cn1cnc2c(=O)n(CC(=O)O)c3ccccc3c21	> 100 mg/kg
Cn1cnc2c(=O)n(Cc3ccco3)c3ccccc3c21	> 100 mg/kg
CCCCn1c(=O)c2ncn(C)c2c2c(C)cccc21.Cl [Compound 27W]	100 mg/kg
Cn1cnc2c(=O)n(C)c3ccccc3c21	> 10 mg/kg
CCCCn1c(=O)c2ncn(CCC)c2c2ccccc21.Cl [Compound 17W]	> 100 mg/kg
CCn1c(=O)c2ncn(C)c2c2ccccc21	< 10 mg/kg
CCCCn1c(=O)c2ncn(Cc3ccccc3)c2c2ccccc21	> 100 mg/kg
CCCCn1cnc2c(=O)n(CCCC)c3ccccc3c21.Cl [Compound 19W]	> 100 mg/kg

Now for a further molecule.
Incoming: Tell me the measured minimal effective dose of `CCCCn1c(=O)c2ncn(C)c2c2cc(C)ccc21` , please.
Outgoing: 100 mg/kg

====

Listed next: entries and their corresponding LD50 at 168 h.
Experiment: Acute toxicity
Settings: mouse, in vivo; po, mortality for seven days, male dd-mice

Example entries and their recorded answers appear below.
compound	property_measured	observed
CCCCn1c(=O)c2ncn(C(C)C)c2c2ccccc21.Cl [Compound 18W]	LD50 at 168 h	> 300 mg/kg
CCCn1c(=O)c2ncn(C)c2c2ccccc21	LD50 at 168 h	> 200 mg/kg

Incoming: Tell me the measured LD50 at 168 h of `CCCCn1c(=O)c2ncn(C)c2c2ccccc21` , please.
Outgoing: > 300 mg/kg

Incoming: Please give the result for CCCCn1c(=O)c2ncn(C)c2c2ccc(Cl)cc21.Cl [Compound 24W] too.
Outgoing: > 300 mg/kg

Incoming: Please give the result for `CCCCn1c(=O)c2nc[nH]c2c2ccccc21` too.
Outgoing: > 300 mg/kg

Incoming: Please give the result for `Cn1cnc2c(=O)n(Cc3ccco3)c3ccccc3c21` too.
Outgoing: > 300 mg/kg

Incoming: Please give the result for `CCCCn1c(=O)c2nnn(C)c2c2ccccc21` too.
Outgoing: > 300 mg/kg

Incoming: Please give the result for `Cn1cnc2c(=O)n(CC(=O)O)c3ccccc3c21` too.
Outgoing: > 300 mg/kg

Incoming: Please give the result for `CCCCn1c(=O)c2nc(S)n(C)c2c2ccccc21` too.
Outgoing: > 300 mg/kg

Incoming: Please give the result for `Cn1cnc2c(=O)n(C)c3ccccc3c21` too.
Outgoing: > 200 mg/kg

====

Tested on: trachea strips of passively sensitized guinea pigs, antigen (EWA) induced contraction
Assay: Effects on passive Schultz-Dale reaction (broncho-dilatory effects)
Assay type: cell-based, guinea pig (Hartley male)
Conditions: Cavia porcellus; concentration of 50% relaxation; sensitized guinea pig trachea, antigen EWA 1 μg/ml, cumulative addition, 37° C.
property_measured: pIC50
API: returns pIC50 as number; meaning -log10 of concentration in mol/L.

Example entries and their recorded answers appear below.
compound	assay_system	observed
CCCCn1c(=O)c2ncn(CCC)c2c2ccccc21.Cl [Compound 17W, hydrochloride]	trachea strips of passively sensitized guinea pigs, antigen (EWA) induced contraction	5.62
CCCn1c(=O)[nH]c(=O)c2[nH]cnc21 [Enprofylline, reference compound]	trachea strips of passively sensitized guinea pigs, antigen (EWA) induced contraction	5.00
CCCCn1c(=O)c2ncn(C)c2c2ccccc21	trachea strips of passively sensitized guinea pigs, antigen (EWA) induced contraction	8.47
CCCCn1c(=O)c2ncn(C(C)C)c2c2ccccc21.Cl [Compound 18W, hydrochloride]	trachea strips of passively sensitized guinea pigs, antigen (EWA) induced contraction	5.82
CCCCn1c(=O)c2ncn(C)c2c2ccc(Cl)cc21.Cl [Compound 24W, hydrochloride]	trachea strips of passively sensitized guinea pigs, antigen (EWA) induced contraction	6.05

Incoming: Notebook entry, trachea strips of passively sensitized guinea pigs, antigen (EWA) induced contraction assay: pIC50 of CCCCn1c(=O)c2ncn(CC)c2c2ccccc21.Cl [Compound 16W, hydrochloride] = ?
Outgoing: 5.39

Incoming: Please give the result for `CCCCn1c(=O)c2nnn(C)c2c2ccccc21` too.
Outgoing: 5.80

Incoming: Please give the result for `CCCCn1c(=O)c2ncn(C)c2c2cc(C)ccc21` too.
Outgoing: 5.01

Incoming: Please give the result for `CCCCn1c(=O)c2nc(S)n(C)c2c2ccccc21` too.
Outgoing: 5.02

Incoming: Please give the result for CC(C)C(=O)c1c(C(C)C)nn2ccccc12 [KC 404, reference compound] too.
Outgoing: 6.07

Incoming: Please give the result for CCCCn1cnc2c(=O)n(CCCC)c3ccccc3c21.Cl [Compound 19W, hydrochloride] too.
Outgoing: 5.19

====

Tested on: experimental asthma in passively sensitized guinea pigs
Assay: Effects on experimental asthma
Type: in vivo, guinea pig (Hartley male)
Conditions: 50 mg/kg orally, one hour before aerosol antigen 1.5% EWA; mean + SEM of 5 or 10 animals; control 254 ± 18
property_measured: Experimental asthma (collapse time) (s)
// units = s; emit number, no label

Example entries and their recorded answers appear below.
molecule	Experimental asthma (collapse time) / s
CCCCn1c(=O)c2ncn(C)c2c2ccccc21	517
CCn1c(=O)c2ncn(C)c2c2ccccc21	519
CCCCn1c(=O)c2ncn(CCC)c2c2ccccc21.Cl [Compound 17W]	484

Now for a further molecule.
Incoming: Tell me the measured Experimental asthma (collapse time) of Cn1c(=O)c2[nH]cnc2n(C)c1=O [Theophylline, reference compound] , please.
Outgoing: 414
